The measurements presented in this section are drawn from the supplement of paper PMC7724964.

- Subject Of Test: UBR5 2391-2453 PABP (domain begin residue: 2391, domain end residue: 2453), O95071
- Sequence (O95071 whole entry): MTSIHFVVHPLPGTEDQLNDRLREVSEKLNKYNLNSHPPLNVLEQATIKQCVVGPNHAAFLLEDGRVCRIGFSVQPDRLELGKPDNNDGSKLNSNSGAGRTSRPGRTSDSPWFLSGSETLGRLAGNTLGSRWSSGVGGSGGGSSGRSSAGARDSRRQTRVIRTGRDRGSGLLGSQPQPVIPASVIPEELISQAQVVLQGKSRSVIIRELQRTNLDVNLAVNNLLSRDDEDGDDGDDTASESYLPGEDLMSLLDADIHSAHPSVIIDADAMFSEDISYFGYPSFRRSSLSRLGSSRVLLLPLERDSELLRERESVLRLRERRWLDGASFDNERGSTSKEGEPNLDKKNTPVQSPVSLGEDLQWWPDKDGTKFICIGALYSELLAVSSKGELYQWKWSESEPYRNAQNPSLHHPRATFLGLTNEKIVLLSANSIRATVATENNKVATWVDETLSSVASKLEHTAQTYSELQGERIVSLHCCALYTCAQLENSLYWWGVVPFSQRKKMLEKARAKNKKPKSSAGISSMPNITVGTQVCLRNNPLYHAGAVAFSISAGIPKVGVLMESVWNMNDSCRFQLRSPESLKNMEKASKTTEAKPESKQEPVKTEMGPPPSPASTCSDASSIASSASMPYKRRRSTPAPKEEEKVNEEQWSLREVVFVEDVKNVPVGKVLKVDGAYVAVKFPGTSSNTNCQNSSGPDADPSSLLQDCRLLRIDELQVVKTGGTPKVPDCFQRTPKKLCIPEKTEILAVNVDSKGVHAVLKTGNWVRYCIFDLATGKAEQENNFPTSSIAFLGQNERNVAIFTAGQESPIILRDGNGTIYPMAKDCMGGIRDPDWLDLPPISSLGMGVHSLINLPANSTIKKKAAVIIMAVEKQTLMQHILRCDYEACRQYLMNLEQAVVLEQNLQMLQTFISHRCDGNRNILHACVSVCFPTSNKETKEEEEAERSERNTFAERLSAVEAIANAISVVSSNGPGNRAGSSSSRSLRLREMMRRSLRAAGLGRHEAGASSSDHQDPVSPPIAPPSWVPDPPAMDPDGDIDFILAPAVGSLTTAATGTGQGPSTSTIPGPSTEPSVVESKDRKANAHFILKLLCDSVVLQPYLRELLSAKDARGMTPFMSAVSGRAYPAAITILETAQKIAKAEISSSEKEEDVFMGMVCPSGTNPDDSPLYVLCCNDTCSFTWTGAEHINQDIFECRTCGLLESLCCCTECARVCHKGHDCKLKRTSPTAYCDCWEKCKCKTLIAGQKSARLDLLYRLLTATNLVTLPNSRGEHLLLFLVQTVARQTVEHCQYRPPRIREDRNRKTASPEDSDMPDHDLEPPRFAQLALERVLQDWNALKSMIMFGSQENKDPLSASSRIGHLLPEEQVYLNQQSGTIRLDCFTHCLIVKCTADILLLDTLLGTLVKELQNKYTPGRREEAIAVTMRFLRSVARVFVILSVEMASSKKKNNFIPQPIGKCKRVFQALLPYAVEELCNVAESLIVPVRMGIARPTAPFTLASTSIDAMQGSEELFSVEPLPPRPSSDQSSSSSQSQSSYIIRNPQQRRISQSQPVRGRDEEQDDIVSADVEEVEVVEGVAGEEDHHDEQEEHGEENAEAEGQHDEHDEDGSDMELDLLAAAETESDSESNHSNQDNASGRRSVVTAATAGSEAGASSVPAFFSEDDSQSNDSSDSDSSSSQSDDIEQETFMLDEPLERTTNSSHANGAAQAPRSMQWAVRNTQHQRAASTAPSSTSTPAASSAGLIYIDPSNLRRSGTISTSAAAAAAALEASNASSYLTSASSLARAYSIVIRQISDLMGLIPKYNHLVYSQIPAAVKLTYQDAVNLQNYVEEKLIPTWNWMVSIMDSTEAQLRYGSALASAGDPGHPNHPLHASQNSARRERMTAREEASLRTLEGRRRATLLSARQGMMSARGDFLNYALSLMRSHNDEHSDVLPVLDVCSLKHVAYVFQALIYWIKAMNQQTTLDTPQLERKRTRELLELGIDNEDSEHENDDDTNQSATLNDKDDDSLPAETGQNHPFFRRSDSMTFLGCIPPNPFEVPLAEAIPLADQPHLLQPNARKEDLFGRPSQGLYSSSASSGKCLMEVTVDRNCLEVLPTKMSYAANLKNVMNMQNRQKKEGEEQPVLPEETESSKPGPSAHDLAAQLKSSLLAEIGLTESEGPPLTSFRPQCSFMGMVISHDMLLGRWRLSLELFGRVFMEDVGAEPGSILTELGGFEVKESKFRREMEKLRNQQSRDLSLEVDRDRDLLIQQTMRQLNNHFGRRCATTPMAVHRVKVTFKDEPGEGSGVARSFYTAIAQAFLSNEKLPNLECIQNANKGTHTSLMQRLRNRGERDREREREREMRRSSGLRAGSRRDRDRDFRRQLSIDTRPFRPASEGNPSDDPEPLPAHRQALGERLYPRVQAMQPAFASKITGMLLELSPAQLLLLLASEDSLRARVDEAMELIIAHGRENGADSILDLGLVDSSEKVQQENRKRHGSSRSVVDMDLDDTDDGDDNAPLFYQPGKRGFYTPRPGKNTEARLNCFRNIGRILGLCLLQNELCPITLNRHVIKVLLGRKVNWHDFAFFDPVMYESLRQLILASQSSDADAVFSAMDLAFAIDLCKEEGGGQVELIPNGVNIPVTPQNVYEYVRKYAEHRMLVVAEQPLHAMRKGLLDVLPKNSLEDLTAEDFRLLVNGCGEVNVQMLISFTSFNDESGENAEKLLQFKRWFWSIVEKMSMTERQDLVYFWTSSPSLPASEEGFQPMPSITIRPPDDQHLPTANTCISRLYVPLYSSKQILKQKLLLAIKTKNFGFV
- Method: phage ELISA signal ratio (GST-PRM binding over GST background); higher = stronger binding of peptide-phage to the PRM
Metric: phage ELISA signal ratio
Numbers only.

Binder: KLDVFAVPFLSSQHEY
Quantitative Readout: 22.6
--
Binder: VLDINAQPFHQSGFNH
Quantitative Readout: 25.7
--
Binder: EALNIFSPMWEPQYVV
Quantitative Readout: 19.5
--
Binder: MDVAAQPWIPIVPPEG
Quantitative Readout: 28.6
--
Binder: SQLSIMSLEAAPFTWE
Quantitative Readout: 10.5
--
Binder: LSVAAPMFVPNNAVVS
Quantitative Readout: 5.76

As a next step, examine the binder that follows.
Input: Item ALSMSAEPFHPMVNYV has what recorded phage ELISA signal ratio?
Output: 30.1
